List of Drug uptake values.
Tested on: Putamen
Test: Drug uptake in anesthetized cynomolgus monkey brain putamen after 145 mins postinjection
Type: ADME, organism-based, Macaca fascicularis
Settings: in vivo

{"columns": ["COMPOUND", "SYSTEM_NAME", "Drug uptake"],
 "data": [
  ["O=C(OCCC[18F])C1C2CCC(CC1c1cccc(/C=C\\I)c1)N2 (stereo not given)", "Putamen", 3.91],
  ["O=C(OCCC[18F])C1C2CCC(CC1c1cccc(/C=C\\Br)c1)N2 (stereo not given)", "Putamen", 4.58],
  ["O=C(OCC[18F])C1C2CCC(CC1c1cccc(/C=C\\Br)c1)N2 (stereo not given)", "Putamen", 4.21],
  ["O=C(OCC[18F])C1C2CCC(CC1c1ccc(/C=C\\I)cc1)N2 (stereo not given)", "Putamen", 4.31],
  ["O=C(OCC[18F])C1C2CCC(CC1c1cccc(/C=C\\I)c1)N2 (stereo not given)", "Putamen", 3.27]
]}

* * *

List of Ratio values.
Assay: Ratio of drug uptake in medulla to cerebellum in anesthetized cynomolgus monkey after 0.5 mins postinjection
Type: ADME, organism-based, Macaca fascicularis
Details: in vivo

{"columns": ["COMPOUND", "Ratio"],
 "data": [
  ["O=C(OCC[18F])C1C2CCC(CC1c1cccc(/C=C\\I)c1)N2 (centres undefined)", 1.6],
  ["O=C(OCCC[18F])C1C2CCC(CC1c1cccc(/C=C\\I)c1)N2 (centres undefined)", 1.5],
  ["O=C(OCC[18F])C1C2CCC(CC1c1cccc(/C=C\\Br)c1)N2 (centres undefined)", 0.6],
  ["O=C(OCCC[18F])C1C2CCC(CC1c1cccc(/C=C\\Br)c1)N2 (centres undefined)", 2.4]
]}

* * *

List of Drug uptake values.
System: Midbrain
Assay: Drug uptake in anesthetized cynomolgus monkey brain midbrain after 4.5 mins postinjection
Type: ADME, organism-based, Macaca fascicularis
Set-up: unit not given here
Conditions: in vivo, 0.075 h

{"columns": ["COMPOUND", "Drug uptake"],
 "data": [
  ["O=C(OCCC[18F])C1C2CCC(CC1c1cccc(/C=C\\Br)c1)N2 (stereo not given)", 3.08],
  ["O=C(OCC[18F])C1C2CCC(CC1c1cccc(/C=C\\Br)c1)N2 (stereo not given)", 1.76],
  ["O=C(OCC[18F])C1C2CCC(CC1c1cccc(/C=C\\I)c1)N2 (stereo not given)", 1.87],
  ["O=C(OCC[18F])C1C2CCC(CC1c1ccc(/C=C\\I)cc1)N2 (stereo not given)", 1.23],
  ["O=C(OCCC[18F])C1C2CCC(CC1c1cccc(/C=C\\I)c1)N2 (stereo not given)", 2.42]
]}

* * *

System: Midbrain
Assay: Drug uptake in anesthetized cynomolgus monkey brain midbrain after 35 mins postinjection
Type: ADME, organism-based, Macaca fascicularis
Set-up: unit not given here
Conditions: in vivo
Criterion: Drug uptake strictly less than 5. Met: Condition met. Not met: Condition not met.

{"columns": ["COMPOUND", "GROUP_LABEL"],
 "data": [
  ["O=C(OCCC[18F])C1C2CCC(CC1c1cccc(/C=C\\Br)c1)N2 (stereo not given)", "Condition not met"],
  ["O=C(OCC[18F])C1C2CCC(CC1c1ccc(/C=C\\I)cc1)N2 (stereo not given)", "Condition met"],
  ["O=C(OCC[18F])C1C2CCC(CC1c1cccc(/C=C\\Br)c1)N2 (stereo not given)", "Condition met"],
  ["O=C(OCC[18F])C1C2CCC(CC1c1cccc(/C=C\\I)c1)N2 (stereo not given)", "Condition met"]
]}

* * *

Test system: Pons
Test: Drug uptake in anesthetized cynomolgus monkey brain pons after 135 mins postinjection
Format: ADME, organism-based, Macaca fascicularis
Conditions: in vivo, 2.25 h

{"columns": ["COMPOUND", "Drug uptake"],
 "data": [
  ["O=C(OCC[18F])C1C2CCC(CC1c1ccc(/C=C\\I)cc1)N2 (stereo not given)", 3.6],
  ["O=C(OCC[18F])C1C2CCC(CC1c1cccc(/C=C\\Br)c1)N2 (stereo not given)", 4.26],
  ["O=C(OCCC[18F])C1C2CCC(CC1c1cccc(/C=C\\Br)c1)N2 (stereo not given)", 4.03],
  ["O=C(OCCC[18F])C1C2CCC(CC1c1cccc(/C=C\\I)c1)N2 (stereo not given)", 4.08],
  ["O=C(OCC[18F])C1C2CCC(CC1c1cccc(/C=C\\I)c1)N2 (stereo not given)", 2.65]
]}

* * *

System: Caudate
Assay: Drug uptake in anesthetized cynomolgus monkey brain caudate after 135 mins postinjection
Assay type: ADME, organism-based, Macaca fascicularis, Caudate nucleus
Settings: in vivo, 2.25 h
List of Drug uptake values.
PROPERTY: Drug uptake

{"columns": ["MOLECULE", "PROPERTY", "TEST_RESULT"],
 "data": [
  ["O=C(OCC[18F])C1C2CCC(CC1c1ccc(/C=C\\I)cc1)N2 (stereo not given)", "Drug uptake", 3.1],
  ["O=C(OCCC[18F])C1C2CCC(CC1c1cccc(/C=C\\Br)c1)N2 (stereo not given)", "Drug uptake", 4.43],
  ["O=C(OCC[18F])C1C2CCC(CC1c1cccc(/C=C\\Br)c1)N2 (stereo not given)", "Drug uptake", 3.74],
  ["O=C(OCCC[18F])C1C2CCC(CC1c1cccc(/C=C\\I)c1)N2 (stereo not given)", "Drug uptake", 3.34],
  ["O=C(OCC[18F])C1C2CCC(CC1c1cccc(/C=C\\I)c1)N2 (stereo not given)", "Drug uptake", 2.87]
]}

* * *

Experiment: Ratio of drug uptake in pons to cerebellum in anesthetized cynomolgus monkey after 105 mins postinjection
Assay type: ADME, organism-based, Macaca fascicularis
Settings: in vivo, 1.75 h
List of Ratio values.

{"columns": ["MOLECULE", "Ratio"],
 "data": [
  ["O=C(OCC[18F])C1C2CCC(CC1c1cccc(/C=C\\I)c1)N2 (stereo not given)", 1.3],
  ["O=C(OCCC[18F])C1C2CCC(CC1c1cccc(/C=C\\I)c1)N2 (stereo not given)", 1.2],
  ["O=C(OCC[18F])C1C2CCC(CC1c1cccc(/C=C\\Br)c1)N2 (stereo not given)", 1.5],
  ["O=C(OCCC[18F])C1C2CCC(CC1c1cccc(/C=C\\Br)c1)N2 (stereo not given)", 1.3],
  ["O=C(OCC[18F])C1C2CCC(CC1c1ccc(/C=C\\I)cc1)N2 (stereo not given)", 1.8]
]}

* * *

Tested on: Thalamus
Assay: Drug uptake in anesthetized cynomolgus monkey brain thalamus after 175 mins postinjection
Type: ADME, organism-based, Macaca fascicularis
Parameters: unit not given here
Settings: in vivo

{"columns": ["COMPOUND", "Drug uptake"],
 "data": [
  ["O=C(OCC[18F])C1C2CCC(CC1c1cccc(/C=C\\Br)c1)N2 (stereo not given)", 3.36],
  ["O=C(OCC[18F])C1C2CCC(CC1c1ccc(/C=C\\I)cc1)N2 (stereo not given)", 3.78],
  ["O=C(OCCC[18F])C1C2CCC(CC1c1cccc(/C=C\\Br)c1)N2 (stereo not given)", 4],
  ["O=C(OCC[18F])C1C2CCC(CC1c1cccc(/C=C\\I)c1)N2 (stereo not given)", 2.76],
  ["O=C(OCCC[18F])C1C2CCC(CC1c1cccc(/C=C\\I)c1)N2 (stereo not given)", 3.44]
]}

* * *

Assay: Protein binding in anesthetized cynomolgus monkey plasma after 15 mins postinjection
Format: ADME, organism-based, Macaca fascicularis
Details: read-out: PPB (converted)
PROPERTY: fraction unbound at 0.25 h

{"columns": ["COMPOUND", "PROPERTY", "TEST_RESULT"],
 "data": [
  ["O=C(OCC[18F])C1C2CCC(CC1c1cccc(/C=C\\I)c1)N2 (stereo unspecified)", "fraction unbound at 0.25 h", 0.932]
]}

* * *

System: Caudate
Assay: Drug uptake in anesthetized cynomolgus monkey brain caudate after 22.5 mins postinjection
Type: ADME, organism-based, Macaca fascicularis, Caudate nucleus
Conditions: in vivo, 0.375 h
List of Drug uptake values.

{"columns": ["COMPOUND", "Drug uptake"],
 "data": [
  ["O=C(OCC[18F])C1C2CCC(CC1c1cccc(/C=C\\I)c1)N2 (stereo not given)", 3.32],
  ["O=C(OCC[18F])C1C2CCC(CC1c1ccc(/C=C\\I)cc1)N2 (stereo not given)", 2.05],
  ["O=C(OCCC[18F])C1C2CCC(CC1c1cccc(/C=C\\I)c1)N2 (stereo not given)", 3.53],
  ["O=C(OCC[18F])C1C2CCC(CC1c1cccc(/C=C\\Br)c1)N2 (stereo not given)", 3.22],
  ["O=C(OCCC[18F])C1C2CCC(CC1c1cccc(/C=C\\Br)c1)N2 (stereo not given)", 4.63]
]}

* * *

Tested on: Medulla
Test: Drug uptake in anesthetized cynomolgus monkey brain medulla after 95 mins postinjection
Format: ADME, organism-based, Macaca fascicularis
Details: in vivo
Criterion: Drug uptake strictly less than 5. Met: label 1. Not met: label 0.

{"columns": ["COMPOUND", "GROUP_LABEL"],
 "data": [
  ["O=C(OCCC[18F])C1C2CCC(CC1c1cccc(/C=C\\Br)c1)N2 (stereo not given)", "label 0"],
  ["O=C(OCC[18F])C1C2CCC(CC1c1cccc(/C=C\\Br)c1)N2 (stereo not given)", "label 1"],
  ["O=C(OCC[18F])C1C2CCC(CC1c1ccc(/C=C\\I)cc1)N2 (stereo not given)", "label 1"],
  ["O=C(OCC[18F])C1C2CCC(CC1c1cccc(/C=C\\I)c1)N2 (stereo not given)", "label 1"]
]}
